Listed below: pIC50 values for each entry.
molecular target: IP receptor (Homo sapiens); construct: one million cells in 160 μl aliquot of cell suspension were put in a well of 96 well plate; test: IP receptor binding/cAMP in HEL cells ([3H]-iloprost binding, Assay 1; iloprost-induced cAMP production, Assay 2); details: compounds of about 40 to 90% purity, read-out: In vitro activity grade (IC50 class)
Sequence (P43119 whole entry): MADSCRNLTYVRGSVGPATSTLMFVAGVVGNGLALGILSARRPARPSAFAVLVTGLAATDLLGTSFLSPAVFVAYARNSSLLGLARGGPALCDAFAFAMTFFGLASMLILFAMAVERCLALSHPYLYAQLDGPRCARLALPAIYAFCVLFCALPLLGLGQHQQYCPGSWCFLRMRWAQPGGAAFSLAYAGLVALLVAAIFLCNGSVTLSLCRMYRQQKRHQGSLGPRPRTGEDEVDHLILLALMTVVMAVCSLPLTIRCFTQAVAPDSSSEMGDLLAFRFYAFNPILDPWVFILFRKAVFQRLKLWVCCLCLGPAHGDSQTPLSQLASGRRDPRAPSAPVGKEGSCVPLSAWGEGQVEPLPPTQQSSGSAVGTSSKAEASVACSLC
pIC50: −log10 of the molar value.
REPORTED_METRIC: pIC50

- O=C(O)C(Cc1ccccc1)Nc1cccc(-c2ccc(OCc3ccc(F)cc3)cc2)c1 (centres unmarked) [Example 24-6]: 6.00 to 7.00
- O=C(Nc1ccc(-c2cc(N[C@@H](Cc3ccccc3)C(=O)O)ncn2)cc1)c1ccccc1 [Example 14-1]: 6.00 to 7.00
- O=C(O)C(Cc1ccccc1)Nc1cc(-c2ccc(OCC3CC3)nc2)ncn1 (centres unmarked) [Example 25-3]: > 7.00
- CCCCC(Nc1cc(-c2ccc(OCc3cccc(F)c3)cc2)ncn1)C(=O)O (centres unmarked) [Example 2-35]: > 7.00
- O=C(O)[C@H](Cc1ccccc1)Nc1cc(-c2ccc(COc3ccccc3)cc2)ncn1 [Example 20-1]: > 7.00
- O=C(O)C(Cc1ccccc1)Nc1cc(-c2ccc(OCc3ccccc3)cc2)on1 (centres unmarked) [Example 28-2]: > 7.00
- O=C(O)C(Cc1ccccc1)Nc1cc(-c2ccc(OCc3ccccc3)cc2)ncn1 (centres unmarked) [Example 1-7]: > 7.00
- Nc1ccc(CC(Nc2cc(-c3ccc(OCc4ccccc4)cc3)ncn2)C(=O)O)cc1 (centres unmarked) [Example 1-29]: > 7.00
